# TESTED TARGET: T1, biotinylated recombinant mouse IL-12Rβ2 (produced in-house) (mouse, UniProt P97378 24-637, random biotinylated)
# T1 construct: also called mIL-12RB2; mIL12RB2
# T1 sequence: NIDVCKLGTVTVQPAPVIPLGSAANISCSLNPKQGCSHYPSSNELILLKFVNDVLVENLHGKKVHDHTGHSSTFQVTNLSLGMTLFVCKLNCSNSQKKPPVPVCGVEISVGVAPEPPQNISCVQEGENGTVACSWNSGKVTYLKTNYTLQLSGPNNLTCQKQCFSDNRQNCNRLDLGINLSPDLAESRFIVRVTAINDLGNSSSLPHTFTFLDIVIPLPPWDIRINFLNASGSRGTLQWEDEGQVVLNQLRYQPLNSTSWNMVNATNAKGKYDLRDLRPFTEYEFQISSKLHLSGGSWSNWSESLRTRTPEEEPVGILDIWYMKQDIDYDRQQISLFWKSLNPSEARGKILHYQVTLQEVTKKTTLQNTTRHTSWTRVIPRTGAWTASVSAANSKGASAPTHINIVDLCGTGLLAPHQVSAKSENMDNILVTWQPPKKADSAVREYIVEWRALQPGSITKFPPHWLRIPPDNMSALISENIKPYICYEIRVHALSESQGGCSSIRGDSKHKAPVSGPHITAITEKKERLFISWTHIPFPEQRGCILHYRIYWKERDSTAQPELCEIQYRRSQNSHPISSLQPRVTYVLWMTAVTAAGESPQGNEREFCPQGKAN
# ASSAY TEXT: BLI (Octet), P.E. VHH on immobilised biotinylated mIL-12RB2
READOUT LABEL: Response
Give the figure only, with no unit attached.

Here is how some binders turned out for Response.
BINDER	Response
anti-IL-12Rβ2 VHH clone 3CRHM14 (VHH, not shown: small tags and cut ends, tested as periplasmic extract) VHH: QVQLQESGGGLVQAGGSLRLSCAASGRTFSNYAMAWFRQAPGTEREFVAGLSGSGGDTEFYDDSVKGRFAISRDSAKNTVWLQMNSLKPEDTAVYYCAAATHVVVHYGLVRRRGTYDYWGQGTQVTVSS	0.957
anti-IL-12Rβ2 VHH clone 3CRHM99 (VHH, not shown: small tags and cut ends, tested as periplasmic extract; also called 21062) VHH: QVQLQESGGGLVQPGGSLRLSCAASGISSSRLHVGWFRQSPGKEREFVAAISLSGGTQAYTDSVKGRFTISGDNVKNTAYLQMNSLRPEDTAVYYCAARERFIWTWSDLTYDYWGQGTQVTVSS	0.812
anti-IL-12Rβ2 VHH clone 3CAHM11 (VHH, not shown: small tags and cut ends, tested as periplasmic extract) VHH: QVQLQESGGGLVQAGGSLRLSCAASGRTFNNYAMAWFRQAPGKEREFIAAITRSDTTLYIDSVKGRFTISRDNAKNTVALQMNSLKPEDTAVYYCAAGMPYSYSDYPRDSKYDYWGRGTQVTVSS	1.03

// moving on: another record for Response
Exercise: Bench note: what Response did anti-IL-12Rβ2 VHH clone 3CRHM73 (VHH, not shown: small tags and cut ends, tested as periplasmic extract; also called 21060) VHH: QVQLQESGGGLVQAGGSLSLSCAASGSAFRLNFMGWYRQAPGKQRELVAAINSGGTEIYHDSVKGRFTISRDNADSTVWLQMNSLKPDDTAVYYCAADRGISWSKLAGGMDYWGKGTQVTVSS show?
Solution: 0.944

Hello, the source for this data is patent US20260209362A1, in case you need it.
